Data origin: patent US7320989B2

Molecular target: human urotensin-II receptor (UTR cells) (Homo sapiens, UniProt Q9UKP6)
Sequence (Q9UKP6 1-389): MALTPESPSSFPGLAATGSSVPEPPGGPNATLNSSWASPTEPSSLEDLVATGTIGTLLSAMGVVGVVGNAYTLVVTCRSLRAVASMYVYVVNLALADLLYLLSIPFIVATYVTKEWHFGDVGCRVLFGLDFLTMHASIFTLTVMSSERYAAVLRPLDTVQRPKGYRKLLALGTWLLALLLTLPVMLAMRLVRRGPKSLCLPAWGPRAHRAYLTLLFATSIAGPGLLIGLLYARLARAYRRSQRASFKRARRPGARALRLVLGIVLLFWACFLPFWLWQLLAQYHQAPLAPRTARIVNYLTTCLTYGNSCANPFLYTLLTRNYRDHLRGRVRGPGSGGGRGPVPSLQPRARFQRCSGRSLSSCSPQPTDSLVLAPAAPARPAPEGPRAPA
Assay: Inhibition of human urotensin-II-induced Ca2+ mobilization in UTR cells
Settings: inhibition of signal induced by 1 nM human U-II, fluo-4AM, FlexStation
observed property: IC50 (µM)
Report the value in µM with no unit label.

// returns reported IC50 for input CN(C)CCOc1cc(Nc2ccnc3cc(C(F)(F)F)ccc23)ccc1Cl [Example 7]
6.5
